testSystem: T1, recombinant human FGF23 (R179Q) (human, UniProt Q9GZV9 25-251)
T1 construct: also called rhFGF23(R179Q); hFGF23(R179Q)
T1 sequence (looked up): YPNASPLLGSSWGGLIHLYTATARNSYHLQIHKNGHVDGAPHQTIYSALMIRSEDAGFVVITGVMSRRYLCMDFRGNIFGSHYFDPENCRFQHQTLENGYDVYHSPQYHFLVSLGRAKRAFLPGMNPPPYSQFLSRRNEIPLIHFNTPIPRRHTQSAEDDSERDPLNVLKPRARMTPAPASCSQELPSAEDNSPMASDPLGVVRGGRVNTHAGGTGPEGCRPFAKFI
protocolDescription: SPR, antibody captured on hIgG chip, rhFGF23(R179Q) analyte
koff vs 0.0003 s⁻¹: at or above is yes (1), below is no (0).

Worked examples, 4 binders total:
* UGX130 (antibody, human IgG1, kappa, V domains shown, also called LC:S53E) VH: QVQLVQSGAEVKKPGASVKVSCKASGYTFTNHYMHWVRQAPGQGLEWMGIINPISGSTSNAQKFQGRVTMTRDTSTSTVYMELSSLRSEDTAVYYCARDIVDAFDFWGQGTMVTVSS VL: AIQLTQSPSSLSASVGDRVTITCRASQGISSALVWYQQKPGKAPKLLIYDASELESGVPSRFSGSGSGTDFTLTISSLQPEDFATYYCQQFNDYFTFGPGTKVDIKR | yes (1)
* UGX188 (antibody, human IgG1, kappa, V domains shown, also called HC:S57E, HC:S59D) VH: QVQLVQSGAEVKKPGASVKVSCKASGYTFTNHYMHWVRQAPGQGLEWMGIINPISGETDNAQKFQGRVTMTRDTSTSTVYMELSSLRSEDTAVYYCARDIVDAFDFWGQGTMVTVSS VL: AIQLTQSPSSLSASVGDRVTITCRASQGISSALVWYQQKPGKAPKLLIYDASSLESGVPSRFSGSGSGTDFTLTISSLQPEDFATYYCQQFNDYFTFGPGTKVDIKR | no (0)
* UGX153 (antibody, human IgG1, kappa, V domains shown, also called HC:N31R) VH: QVQLVQSGAEVKKPGASVKVSCKASGYTFTRHYMHWVRQAPGQGLEWMGIINPISGSTSNAQKFQGRVTMTRDTSTSTVYMELSSLRSEDTAVYYCARDIVDAFDFWGQGTMVTVSS VL: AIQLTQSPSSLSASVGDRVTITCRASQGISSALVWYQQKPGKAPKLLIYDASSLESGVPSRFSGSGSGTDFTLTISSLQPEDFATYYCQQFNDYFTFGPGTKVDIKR | yes (1)
* UGX126 (antibody, human IgG1, kappa, V domains shown, also called LC:S52D; S52D) VH: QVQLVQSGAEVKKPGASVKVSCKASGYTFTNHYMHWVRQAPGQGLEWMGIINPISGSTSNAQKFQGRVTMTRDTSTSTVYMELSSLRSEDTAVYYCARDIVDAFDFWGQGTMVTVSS VL: AIQLTQSPSSLSASVGDRVTITCRASQGISSALVWYQQKPGKAPKLLIYDADSLESGVPSRFSGSGSGTDFTLTISSLQPEDFATYYCQQFNDYFTFGPGTKVDIKR | no (0)

--- query ---
Threshold query (koff >= 0.0003 s⁻¹) on UGX162 (antibody, human IgG1, kappa, V domains shown, also called HC:S59L) VH: QVQLVQSGAEVKKPGASVKVSCKASGYTFTNHYMHWVRQAPGQGLEWMGIINPISGSTLNAQKFQGRVTMTRDTSTSTVYMELSSLRSEDTAVYYCARDIVDAFDFWGQGTMVTVSS VL: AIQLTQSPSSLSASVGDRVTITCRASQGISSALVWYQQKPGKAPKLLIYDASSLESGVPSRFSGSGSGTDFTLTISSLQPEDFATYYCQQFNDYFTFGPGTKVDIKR
yes (1)

Cited source: patent US20260250371A1
